These measurements were taken from patent US20130261077A1.

EXPERIMENTAL TARGET: FimH-CRD (Escherichia coli, UniProt P08191)
Construct: The first 177 amino acids of the FimH protein; thrombin tag (printed as 'fusion protein with thrombin') (cleaved yes); made in house; host or cells: bacteria (pET21b plasmid)
Sequence (P08191 22-177): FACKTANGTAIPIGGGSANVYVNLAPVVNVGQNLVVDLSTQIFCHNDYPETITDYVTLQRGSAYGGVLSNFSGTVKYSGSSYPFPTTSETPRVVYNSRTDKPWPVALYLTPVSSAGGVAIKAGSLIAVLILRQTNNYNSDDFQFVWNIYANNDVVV
PROTOCOL DESCRIPTION: Competitive binding assay by fluorescence polarization, assay 2 (compounds prepared by robotics, plates frozen and thawed)
Description: The first 177 amino acids of the FimH protein were expressed as a fusion protein with thrombin in a pET21b plasmid in bacteria. This FimH protein sequence contains the carbohydrate recognition domain (CRD) and shall be termed FimH-CRD. […] A competitive binding assay by fluorescence polarization was performed using 5 nM of the Alexa 647 mannoside probe and 60 nM of the FimH-CRD. […]
Please provide measured pKd for the entries that follow.
Please express pKd as -log10 of the molar concentration.

Asked: Provide pKd value for the following molecule: CNC(=O)c1cccc([C@H]2O[C@H](CO)[C@@H](O)[C@H](O)[C@@H]2O)c1
Given back: 6.95

Asked: Provide pKd value for the following molecule: OC[C@H]1O[C@H](c2cccc(-c3ccc(-c4cnco4)cc3)c2)[C@@H](O)[C@@H](O)[C@@H]1O
Given back: 7.71

Asked: Provide pKd value for the following molecule: OC[C@H]1O[C@H](c2cccc(-c3ccc4[nH]c(O)nc4c3)c2)[C@@H](O)[C@@H](O)[C@@H]1O
Given back: 7.96

Asked: Provide pKd value for the following molecule: OC[C@H]1O[C@H](c2ccc(-c3cn(Cc4ccccc4)nn3)cc2)[C@@H](O)[C@@H](O)[C@@H]1O
Given back: 7.82

Asked: Provide pKd value for the following molecule: CNC(=O)c1ccc2nc(-c3cccc([C@H]4O[C@H](CO)[C@@H](O)[C@H](O)[C@@H]4O)c3)ccc2c1
Given back: 7.65

Asked: Provide pKd value for the following molecule: OC[C@H]1O[C@H](c2ccc(Oc3ccccc3)cc2)[C@@H](O)[C@@H](O)[C@@H]1O
Given back: 7.41

Asked: Provide pKd value for the following molecule: Cc1nnc(-c2ccc(Oc3cccc([C@H]4O[C@H](CO)[C@@H](O)[C@H](O)[C@@H]4O)c3)cc2)o1
Given back: 7.97

Asked: Provide pKd value for the following molecule: Cc1nnc(-c2ccc(-c3ccc([C@H]4O[C@H](CO)[C@@H](O)[C@H](O)[C@@H]4O)cc3)cc2)o1
Given back: 7.64

Asked: Provide pKd value for the following molecule: CCCCn1cnc2ccc(-c3cccc([C@H]4O[C@H](CO)[C@@H](O)[C@H](O)[C@@H]4O)c3)cc21
Given back: 7.70

Asked: Provide pKd value for the following molecule: Cc1cc(O)cc([C@H]2O[C@H](CO)[C@@H](O)[C@H](O)[C@@H]2O)c1
Given back: 7.51

Asked: Provide pKd value for the following molecule: COc1cc(-c2nnc(C)o2)ccc1-c1cccc([C@H]2O[C@H](CO)[C@@H](O)[C@H](O)[C@@H]2O)c1C
Given back: 8.01

Asked: Provide pKd value for the following molecule: CC(=O)c1ccc(-c2cccc([C@H]3O[C@H](CO)[C@@H](O)[C@H](O)[C@@H]3O)c2)cc1
Given back: 7.74

Asked: Provide pKd value for the following molecule: CNC(=O)c1ccc(Oc2cc(C)cc([C@H]3O[C@H](CO)[C@@H](O)[C@H](O)[C@@H]3O)c2)cc1
Given back: 8.08

Asked: Provide pKd value for the following molecule: COC(=O)c1ccc(Oc2ccc([C@H]3O[C@H](CO)[C@@H](O)[C@H](O)[C@@H]3O)cc2)cc1
Given back: 7.88

Asked: Provide pKd value for the following molecule: CC(C)c1nnc(-c2ccc(-c3cccc([C@H]4O[C@H](CO)[C@@H](O)[C@H](O)[C@@H]4O)c3)cc2)o1
Given back: 7.88

Asked: Provide pKd value for the following molecule: OC[C@H]1O[C@H](c2cccc(C/C=C/c3cc(Cl)cc(Cl)c3)c2)[C@@H](O)[C@@H](O)[C@@H]1O
Given back: 7.47

Asked: Provide pKd value for the following molecule: CNC(=O)c1cccc(-c2ccc(-c3cccc([C@H]4O[C@H](CO)[C@@H](O)[C@H](O)[C@@H]4O)c3)c(C)c2)c1
Given back: 7.81

Asked: Provide pKd value for the following molecule: COC(=O)c1cccc(C#Cc2cccc([C@H]3O[C@H](CO)[C@@H](O)[C@H](O)[C@@H]3O)c2)c1
Given back: 7.63

Asked: Provide pKd value for the following molecule: CNC(=O)c1ccc(Oc2cccc([C@H]3O[C@H](CO)[C@@H](O)[C@H](O)[C@@H]3O)c2F)cc1
Given back: 7.97

Asked: Provide pKd value for the following molecule: CNC(=O)c1cc(/C=C/Cc2cccc([C@H]3O[C@H](CO)[C@@H](O)[C@H](O)[C@@H]3O)c2)cc(C(=O)NC)c1
Given back: 7.03

Asked: Provide pKd value for the following molecule: Cc1ccc2[nH]c(-c3cccc([C@H]4O[C@H](CO)[C@@H](O)[C@H](O)[C@@H]4O)c3)nc2c1
Given back: 7.30

Asked: Provide pKd value for the following molecule: OCc1nc2cc(-c3cccc([C@H]4O[C@H](CO)[C@@H](O)[C@H](O)[C@@H]4O)c3)ccc2[nH]1
Given back: 7.56

Asked: Provide pKd value for the following molecule: Cc1nnc(-c2ccc3cc(-c4cccc([C@H]5O[C@H](CO)[C@@H](O)[C@H](O)[C@@H]5O)c4)ccc3c2)o1
Given back: 8.18

Asked: Provide pKd value for the following molecule: Cc1cccc(COc2ccc(C3O[C@H](CO)[C@@H](O)[C@H](O)[C@@H]3O)cc2)n1 (stereo partly shown)
Given back: 8.04

Asked: Provide pKd value for the following molecule: CNC(=O)c1cccc2[nH]c(-c3cccc([C@H]4O[C@H](CO)[C@@H](O)[C@H](O)[C@@H]4O)c3)nc12
Given back: 7.26

Asked: Provide pKd value for the following molecule: OC[C@H]1O[C@H](c2cccc(/C=C/c3cc(Cl)cc(Cl)c3)c2)[C@@H](O)[C@@H](O)[C@@H]1O
Given back: 7.48

Asked: Provide pKd value for the following molecule: OC[C@H]1OC(c2cccc(Oc3ccnc4ccccc34)c2)[C@@H](O)[C@@H](O)[C@@H]1O (stereo partly shown)
Given back: 8.10

Asked: Provide pKd value for the following molecule: CNC(=O)COc1cccc(C2O[C@H](CO)[C@@H](O)[C@H](O)[C@@H]2O)c1 (stereo partly shown)
Given back: 7.72
